tested on: hiPSCs differentiating into hepatocyte-like cells; assay: ReproTracker hepatocyte differentiation assay
Value type: ReproTracker results Hepatocyte-like cells

In the examples that follow, each entry is paired with its recorded ReproTracker results Hepatocyte-like cells.
In [3]: df
Out[3]:
                                   compound  recorded_value
0  Nc1ccn([C@@H]2O[C@H](CO)[C@@H](O)[C@@H]2O)c(=O)n1 [Cytarabine]        Negative
1  CC1=C(/C=C/C(C)=C/C=C/C(C)=C\C(=O)O)C(C)(C)CCC1 [Isotretinoin]        Positive
2  C[C@@H]1C[C@H]2[C@@H]3CCC4=CC(=O)C=C[C@]4(C)[C@@]3(F)[C@@H](O)C[C@]2(C)[C@@]1(O)C(=O)CO [Dexamethasone]        Negative
3  OC(Cn1cncn1)(Cn1cncn1)c1ccc(F)cc1F [Fluconazole]        Negative
4  CC1(C)O[C@@H]2[C@@H](CO[C@@]3(COS(N)(=O)=O)OC(C)(C)O[C@@H]23)O1 [Topiramate]        Negative

Given item O=c1[nH]cc(F)c(=O)[nH]1 [5-Fluorouracil] , the value recorded as its ReproTracker results Hepatocyte-like cells is Negative

GET /value?item= O=C1NC(=O)C(c2ccccc2)(c2ccccc2)N1 [Phenytoin] &field=ReproTracker results Hepatocyte-like cells returns Positive

Lookup result for CS(=O)(=O)OCCCCOS(C)(=O)=O [Busulfan] ; measured ReproTracker results Hepatocyte-like cells: Negative

====

Here's what we have: ReproTracker results Neural rosette-like cells numbers for hiPSCs differentiating into neural rosette-like cells.

Compound	Recorded value
NC(=O)NO [Hydroxyurea]	Positive
C=CC(=O)N1CCC[C@@H](n2nc(-c3ccc(Oc4ccccc4)cc3)c3c(N)ncnc32)C1 [Ibrutinib]	Negative
C[Si](Cn1cncn1)(c1ccc(F)cc1)c1ccc(F)cc1 [Flusilazole]	Positive
NS(=O)(=O)c1cc2c(cc1Cl)NCNS2(=O)=O [Hydrochlorothiazide]	Negative
CC(C)Cc1ccc(C(C)C(=O)O)cc1 (stereo not shown) [Ibuprofen]	Positive

Entry under test: COc1ccccc1Oc1c(NS(=O)(=O)c2ccc(C(C)(C)C)cc2)nc(-c2ncccn2)nc1OCCO [Bosentan] . Its ReproTracker results Neural rosette-like cells was Negative

Sample N.N.[Cl][Pt][Cl] [Cisplatin] ; ReproTracker results Neural rosette-like cells observed: Positive

====

system: hiPSCs trilineage differentiation (cardiomyocytes, hepatocytes, neural rosette-like cells); test: ReproTracker trilineage differentiation, overall teratogenicity prediction; conditions: lowest tested concentration with significant decrease of at least one biomarker, trilineage assay; 'N.d. up to x' given as > x
Value type: ReproTracker results LOAEL

Recorded ReproTracker results LOAEL for Nc1cccc2c1C(=O)N(C1CCC(=O)NC1=O)C2=O (centres unmarked) [Pomalidomide] on hiPSCs trilineage differentiation (cardiomyocytes, hepatocytes, neural rosette-like cells) was ≤12.5 µM

Field ReproTracker results LOAEL (hiPSCs trilineage differentiation (cardiomyocytes, hepatocytes, neural rosette-like cells)), entry CC(C)(C)c1nc(-c2cccc(NS(=O)(=O)c3c(F)cccc3F)c2F)c(-c2ccnc(N)n2)s1 : 0.0125 µM

# lookup: Nc1cccc2c1CN(C1CCC(=O)NC1=O)C2=O (centres unmarked) [Lenalidomide] on hiPSCs trilineage differentiation (cardiomyocytes, hepatocytes, neural rosette-like cells), ReproTracker results LOAEL = ≤0.06 µM

hiPSCs trilineage differentiation (cardiomyocytes, hepatocytes, neural rosette-like cells) data for COc1ccc([C@@H]2Sc3ccccc3N(CCN(C)C)C(=O)[C@@H]2OC(C)=O)cc1 ; its ReproTracker results LOAEL: ≤7.8 µM

With hiPSCs trilineage differentiation (cardiomyocytes, hepatocytes, neural rosette-like cells) as the test system, O=P1(N(CCCl)CCCl)NCCCO1 (centres unmarked) [Cyclophosphamide] showed ReproTracker results LOAEL of 37.5 µM

Bench note, hiPSCs trilineage differentiation (cardiomyocytes, hepatocytes, neural rosette-like cells): CC[C@H]1OC(=O)[C@H](C)[C@@H](O[C@H]2C[C@@](C)(OC)[C@@H](O)[C@H](C)O2)[C@H](C)[C@@H](O[C@@H]2O[C@H](C)C[C@H](N(C)C)[C@H]2O)[C@](C)(OC)C[C@@H](C)C(=O)[C@H](C)[C@@H](O)[C@]1(C)O , ReproTracker results LOAEL reads 12.5 µM

Observed ReproTracker results LOAEL on hiPSCs trilineage differentiation (cardiomyocytes, hepatocytes, neural rosette-like cells), entry NC(=O)NO [Hydroxyurea] , equals ≤2.0 µM

Observed ReproTracker results LOAEL, hiPSCs trilineage differentiation (cardiomyocytes, hepatocytes, neural rosette-like cells), CC1(C)O[C@@H]2[C@@H](CO[C@@]3(COS(N)(=O)=O)OC(C)(C)O[C@@H]23)O1 [Topiramate] : 125 µM
